Biological target: CDK19/Cyclin C (Homo sapiens, UniProt Q9BWU1)
Sequence (Q9BWU1 whole entry): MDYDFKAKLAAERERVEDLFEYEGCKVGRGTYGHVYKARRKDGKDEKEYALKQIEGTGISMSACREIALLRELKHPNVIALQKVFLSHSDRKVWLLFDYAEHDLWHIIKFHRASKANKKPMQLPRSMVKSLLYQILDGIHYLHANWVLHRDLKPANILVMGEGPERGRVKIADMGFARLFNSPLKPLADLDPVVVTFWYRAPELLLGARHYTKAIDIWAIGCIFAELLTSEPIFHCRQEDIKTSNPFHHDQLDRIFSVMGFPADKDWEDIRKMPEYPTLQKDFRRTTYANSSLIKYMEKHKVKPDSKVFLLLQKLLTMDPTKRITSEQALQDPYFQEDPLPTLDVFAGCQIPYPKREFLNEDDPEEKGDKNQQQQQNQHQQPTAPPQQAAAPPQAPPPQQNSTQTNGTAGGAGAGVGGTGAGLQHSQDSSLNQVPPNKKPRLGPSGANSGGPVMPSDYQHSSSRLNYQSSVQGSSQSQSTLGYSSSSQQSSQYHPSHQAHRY
Sequence (P24863 whole entry partner): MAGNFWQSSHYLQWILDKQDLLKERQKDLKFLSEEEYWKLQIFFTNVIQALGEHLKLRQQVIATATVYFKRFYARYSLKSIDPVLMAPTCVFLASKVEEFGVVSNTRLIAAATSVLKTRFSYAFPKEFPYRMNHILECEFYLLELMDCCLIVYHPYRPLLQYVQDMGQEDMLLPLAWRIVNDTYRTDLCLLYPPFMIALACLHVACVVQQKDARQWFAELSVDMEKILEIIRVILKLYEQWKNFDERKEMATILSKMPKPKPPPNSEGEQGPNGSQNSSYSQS
Test: NanoBRET live-cell target engagement, NanoLuc-CDK19/Cyclin C in HEK-293
Conditions: IC50 (nM) Average*, CDK19/Y; n=3 average ± SEM, n=2 average to 2 significant figures

MOLECULE: Cc1ncc(-c2ccnc(Nc3ccc(S(C)(=O)=O)cc3)n2)n1C(C)C [AZD5438]
IC50 [nM]: 300
//
MOLECULE: CCN1CCN(Cc2ccc(NC(=O)Nc3ccc(Oc4cc(NC)ncn4)cc3)cc2C(F)(F)F)CC1 [AST-487]
IC50 [nM]: 25
//
MOLECULE: CCCCOc1c(C(=O)c2c(F)cc(C)cc2F)c[nH]c2nncc1-2 [BMS-265246]
IC50 [nM]: 1.47

----------
Target: CDK11B/Cyclin L2 (Homo sapiens, UniProt P21127)
Sequence (P21127 1-782 isoform P21127-2): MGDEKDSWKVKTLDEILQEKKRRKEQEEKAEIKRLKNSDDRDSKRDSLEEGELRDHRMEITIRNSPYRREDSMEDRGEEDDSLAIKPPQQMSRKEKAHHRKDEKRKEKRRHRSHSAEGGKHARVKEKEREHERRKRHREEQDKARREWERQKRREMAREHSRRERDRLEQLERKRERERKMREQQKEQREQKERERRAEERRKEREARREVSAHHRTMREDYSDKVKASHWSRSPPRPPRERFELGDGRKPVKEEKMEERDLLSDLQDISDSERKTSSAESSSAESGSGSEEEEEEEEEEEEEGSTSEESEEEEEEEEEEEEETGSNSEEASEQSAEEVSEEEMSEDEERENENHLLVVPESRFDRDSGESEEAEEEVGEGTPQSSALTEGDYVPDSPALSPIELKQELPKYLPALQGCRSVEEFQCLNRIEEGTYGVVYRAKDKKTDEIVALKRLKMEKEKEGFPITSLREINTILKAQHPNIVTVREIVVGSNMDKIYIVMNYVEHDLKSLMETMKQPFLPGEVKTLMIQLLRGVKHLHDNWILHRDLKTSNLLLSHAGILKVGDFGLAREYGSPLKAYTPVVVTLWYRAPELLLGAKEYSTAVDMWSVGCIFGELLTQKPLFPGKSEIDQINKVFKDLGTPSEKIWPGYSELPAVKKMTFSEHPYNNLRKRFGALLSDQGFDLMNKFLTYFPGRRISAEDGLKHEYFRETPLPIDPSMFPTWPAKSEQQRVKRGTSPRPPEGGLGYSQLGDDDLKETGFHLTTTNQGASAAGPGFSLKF
Assay: NanoBRET live-cell target engagement, CDK11B-NanoLuc/Cyclin L2 in HEK-293
Format: binding
Details: independent experiment 2; read-out: CDK11b/L2 IC50
ATTRIBUTE_MEASURED: IC50

SMI: CN1C/C=C/CCOc2cccc(c2)-c2ccnc(n2)Nc2cccc(c2)C1
REPORTED: 54 nM

----------
Target: CDK4/Cyclin D1 (Homo sapiens, UniProt P11802)
Sequence (P11802 whole entry): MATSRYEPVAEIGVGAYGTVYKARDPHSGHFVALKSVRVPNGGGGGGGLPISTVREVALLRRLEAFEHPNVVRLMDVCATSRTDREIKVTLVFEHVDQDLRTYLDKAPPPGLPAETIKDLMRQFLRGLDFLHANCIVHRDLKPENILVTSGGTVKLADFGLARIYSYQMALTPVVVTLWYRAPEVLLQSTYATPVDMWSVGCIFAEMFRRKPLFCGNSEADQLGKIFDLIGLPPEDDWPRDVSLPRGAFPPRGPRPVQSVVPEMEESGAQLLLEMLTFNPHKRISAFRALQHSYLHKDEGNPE
Sequence (P24385 whole entry partner): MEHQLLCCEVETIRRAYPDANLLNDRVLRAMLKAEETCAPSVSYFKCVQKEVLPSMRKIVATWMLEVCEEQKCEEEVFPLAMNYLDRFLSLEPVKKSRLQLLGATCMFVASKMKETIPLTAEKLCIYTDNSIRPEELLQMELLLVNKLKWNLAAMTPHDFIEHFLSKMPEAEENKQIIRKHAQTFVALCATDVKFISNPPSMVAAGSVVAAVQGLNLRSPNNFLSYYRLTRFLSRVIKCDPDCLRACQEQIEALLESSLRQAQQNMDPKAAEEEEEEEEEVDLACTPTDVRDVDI
Test: NanoBRET live-cell target engagement, NanoLuc-CDK4/Cyclin D1 in HEK-293
Type: binding
Conditions: CDK4/D1; average (± SEM where n=3); read-out: IC50
pIC50: −log10 of the molar value.

COMPOUND: CS(=O)(=O)N1CCC(NC(=O)c2[nH]ncc2NC(=O)c2c(Cl)cccc2Cl)CC1 [NVP-LCQ195]
TESTED_ON: CDK4/Cyclin D1 (Homo sapiens, UniProt P11802)
pIC50: 7.82
//
COMPOUND: N#CCNC(=O)c1ccc(-c2ccnc(Nc3ccc(N4CCOCC4)cc3)n2)cc1 [Momelotinib]
TESTED_ON: CDK4/Cyclin D1 (Homo sapiens, UniProt P11802)
pIC50: 6.19
//
COMPOUND: CC(C)c1cnn2c(NCc3ccccc3-n3cccn3)nc(OC3CCCNC3)nc12 (stereo not drawn) [LDC4297]
TESTED_ON: CDK4/Cyclin D1 (Homo sapiens, UniProt P11802)
pIC50: 7.10

----------
# maps each entry to its Inhibition at 10µM (%) Replicate 1
Molecular target: CDK11A/Cyclin L2 (Homo sapiens, UniProt Q9UQ88)
Sequence (Q9UQ88 whole entry): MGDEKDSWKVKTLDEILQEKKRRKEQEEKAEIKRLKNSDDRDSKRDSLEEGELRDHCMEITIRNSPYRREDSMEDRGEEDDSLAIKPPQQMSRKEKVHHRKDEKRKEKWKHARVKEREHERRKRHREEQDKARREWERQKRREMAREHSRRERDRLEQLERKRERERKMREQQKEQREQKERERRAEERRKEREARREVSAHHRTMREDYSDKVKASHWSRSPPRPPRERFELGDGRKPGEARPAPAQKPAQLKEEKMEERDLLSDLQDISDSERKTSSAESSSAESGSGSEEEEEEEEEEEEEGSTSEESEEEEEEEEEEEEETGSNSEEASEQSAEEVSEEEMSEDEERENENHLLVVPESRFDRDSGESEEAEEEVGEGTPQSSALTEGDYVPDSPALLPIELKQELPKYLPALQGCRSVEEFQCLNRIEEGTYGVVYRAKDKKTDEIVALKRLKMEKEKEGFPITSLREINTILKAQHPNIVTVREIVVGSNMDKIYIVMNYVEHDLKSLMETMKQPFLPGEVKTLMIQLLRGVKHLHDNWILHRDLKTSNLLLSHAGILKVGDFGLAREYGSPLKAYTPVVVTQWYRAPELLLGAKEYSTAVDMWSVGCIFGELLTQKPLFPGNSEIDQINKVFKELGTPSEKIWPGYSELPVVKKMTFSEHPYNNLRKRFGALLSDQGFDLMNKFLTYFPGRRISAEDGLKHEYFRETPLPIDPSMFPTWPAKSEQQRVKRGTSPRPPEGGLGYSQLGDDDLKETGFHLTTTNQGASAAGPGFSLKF
Assay: NanoBRET live-cell target engagement, CDK11A-NanoLuc/Cyclin L2 in HEK-293
Assay type: binding
Conditions: CDK11a/L2; 10µM
ATTRIBUTE_MEASURED: Inhibition at 10µM (%) Replicate 1

COMPOUND: CC(C)c1cnn2c(NCc3ccccc3)cc(N[C@@H](CO)[C@H](O)CO)nc12
ATTRIBUTE_MEASURED: Inhibition at 10µM (%) Replicate 1
REPORTED: 16.5

COMPOUND: CNC1CCN(C(=O)c2ccc(Nc3ncc(F)c(-c4cnc(C)n4C(C)C)n3)cc2)C1 (stereo not shown)
ATTRIBUTE_MEASURED: Inhibition at 10µM (%) Replicate 1
REPORTED: 89.7

COMPOUND: O=C(Nc1c[nH]nc1-c1ccccn1)c1nn(C2CCNCC2)cc1Cl
ATTRIBUTE_MEASURED: Inhibition at 10µM (%) Replicate 1
REPORTED: -5.6

COMPOUND: CCC(CO)Nc1nc(Nc2cccc(-c3ccccn3)c2)c2ncn(C(C)C)c2n1.Cl.O [(R) - DRF053]
ATTRIBUTE_MEASURED: Inhibition at 10µM (%) Replicate 1
REPORTED: 8.6
